LD50 at 240 h overview
assay: LD50 in rats, p.o.; conditions: rat, in vivo, po, dose for which 50% of the animals survive 10 days after administration

>  <STRUCTURE>
Nc1nnc(-c2cccc(Cl)c2Cl)c(N)n1

>  <LD50 at 240 h>
> 640 mg/kg

$$$$
>  <STRUCTURE>
Nc1nnc(-c2cc(Cl)ccc2Cl)c(N)n1

>  <LD50 at 240 h>
> 640 mg/kg

$$$$

====

test: anticonvulsant activity, standard maximal electroshock test (MES); assay type: in vivo, mice; details: Mus musculus, po; mice, p.o.; maximal electroshock; Table 3; read-out: ED50, MES
READOUT: log10(ED50) (log10 of the value in mg/kg)

>  <MOLECULE>
Nc1nnc(-c2ccccc2Br)c(N)n1 [2-Br NH2]

>  <READOUT>
log10(ED50)

>  <VALUE_OBSERVED>
0.93

$$$$
>  <MOLECULE>
Nc1nnc(-c2c(F)cccc2Cl)c(N)n1 [2-Cl, 6-F NH2]

>  <READOUT>
log10(ED50)

>  <VALUE_OBSERVED>
1.09

$$$$
>  <MOLECULE>
Nc1nnc(-c2cc(Br)ccc2Cl)c(N)n1 [2-Cl, 5-Br NH2]

>  <READOUT>
log10(ED50)

>  <VALUE_OBSERVED>
0.78

$$$$
>  <MOLECULE>
Nc1nnc(-c2ccccc2I)c(N)n1 [2-I NH2]

>  <READOUT>
log10(ED50)

>  <VALUE_OBSERVED>
1.07

$$$$
>  <MOLECULE>
Cc1ccccc1-c1nnc(N)nc1N [2-Me NH2]

>  <READOUT>
log10(ED50)

>  <VALUE_OBSERVED>
1.18

$$$$
>  <MOLECULE>
Nc1nnc(-c2cc(Cl)ccc2Br)c(N)n1 [2-Br, 5-Cl NH2]

>  <READOUT>
log10(ED50)

>  <VALUE_OBSERVED>
0.66

$$$$
>  <MOLECULE>
Nc1nnc(-c2ccc(Br)cc2Cl)c(N)n1 [2-Cl, 4-Br NH2]

>  <READOUT>
log10(ED50)

>  <VALUE_OBSERVED>
1.11

$$$$
>  <MOLECULE>
Nc1nnc(-c2cc(Cl)ccc2Cl)c(N)n1 [2,5-Cl2 NH2]

>  <READOUT>
log10(ED50)

>  <VALUE_OBSERVED>
0.52

$$$$
>  <MOLECULE>
Nc1nnc(-c2cc(Cl)cc(Cl)c2Cl)c(N)n1 [2,3,5-Cl3 NH2]

>  <READOUT>
log10(ED50)

>  <VALUE_OBSERVED>
-0.19

$$$$
>  <MOLECULE>
Nc1nnc(-c2ccccc2C(F)(F)F)c(N)n1 [2-CF3 NH2]

>  <READOUT>
log10(ED50)

>  <VALUE_OBSERVED>
1.30

$$$$
>  <MOLECULE>
CC(=O)Nc1nc(N)nnc1-c1cccc(Cl)c1Cl [2,3-Cl2 NHCOCH3]

>  <READOUT>
log10(ED50)

>  <VALUE_OBSERVED>
0.70

$$$$
>  <MOLECULE>
CN(C)C=Nc1nc(N)nnc1-c1cccc(Cl)c1Cl.O=C(O)C(=O)O [2,3-Cl2 NCHNMe2]

>  <READOUT>
log10(ED50)

>  <VALUE_OBSERVED>
0.70

$$$$
